B1: Twister Ribozyme (parent)
chain: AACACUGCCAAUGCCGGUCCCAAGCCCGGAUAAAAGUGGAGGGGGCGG

variants of: B1; assay: self-cleavage, relative activity (ratio to wild type); higher = more cleavage; co-transcriptional
test-readout: self-cleavage
A bare number is all that is needed in reply.

Ask: Which self-cleavage reading was recorded for the variant G16U A33U ?
Result: 0.88

Ask: Reported self-cleavage for C9U G44A : what is it?
Result: 0.72

Ask: Reported self-cleavage for A10C C14A : what is it?
Result: 1.05

Ask: GET /values?readout=self-cleavage&item= G28U G38A
Result: 0.763

Ask: GET /values?readout=self-cleavage&item= A2U G39C
Result: 0.18

Ask: What measured self-cleavage goes with C8G U18A ?
Result: 0.0816

Ask: Recorded self-cleavage of U12C C20U , please.
Result: 0.695

Ask: Need self-cleavage, item A30G U37C
Result: 0.486

Ask: Give the measured self-cleavage of G13U .
Result: 0.801

Ask: Sample A23G G42A — what was its self-cleavage?
Result: 0.128

Ask: Which value of self-cleavage has been reported for A11U G28A in the records?
Result: 1.02

Ask: Fill in the blank: the reported self-cleavage of G28U G44U is ____.
Result: 0.879

Ask: // query self-cleavage value for entry A4C A11G
Result: 0.193

Ask: GET /values?readout=self-cleavage&item= C3G A4G
Result: 0.462

Ask: I am curious: what self-cleavage value has been reported for A23G C25A ?
Result: 0.0465

Ask: # get_value(readout='self-cleavage', item= C8A C20U )
Result: 0.0847

Ask: So what's the measured self-cleavage for this one? A11C C19A
Result: 0.136

Ask: Could you tell me which self-cleavage is on file for G17U C19U ?
Result: 0.143

Ask: Tell me the measured self-cleavage of G39C G43A , please.
Result: 0.103

Ask: I am curious: what self-cleavage value has been reported for U6A C20U ?
Result: 0.82

Ask: Please report the recorded self-cleavage for U6A G28U .
Result: 0.604

Ask: What does the record list as self-cleavage for C27U G41U ?
Result: 0.345
